# assayed.system: T1, human TNFR1 on MRC-5 cells (human, UniProt P19438 30-455)
# T1 sequence (looked up): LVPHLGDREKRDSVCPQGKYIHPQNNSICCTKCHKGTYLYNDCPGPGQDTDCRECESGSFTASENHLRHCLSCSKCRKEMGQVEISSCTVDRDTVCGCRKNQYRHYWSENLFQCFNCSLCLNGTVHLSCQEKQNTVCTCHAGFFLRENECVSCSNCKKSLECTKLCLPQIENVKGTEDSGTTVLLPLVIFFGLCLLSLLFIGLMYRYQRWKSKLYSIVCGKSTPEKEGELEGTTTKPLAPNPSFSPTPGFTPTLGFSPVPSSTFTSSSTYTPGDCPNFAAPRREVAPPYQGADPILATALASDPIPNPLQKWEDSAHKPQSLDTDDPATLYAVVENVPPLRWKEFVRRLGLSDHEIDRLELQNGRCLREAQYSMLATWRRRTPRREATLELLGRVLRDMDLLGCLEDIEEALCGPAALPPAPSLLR
# protocol.description: cell-based or functional assay
assay.metric: MRC-5 EC50 (nM)

| binder | assay.metric | recorded.measurement |
| --- | --- | --- |
| DOM1h-574-15 (other) VH: EVQLLESGGGLVQPGGSLRLSCAASGFTFVKYSMGWVRQAPGKGLEWVSQISNTGDHTYYADSVKGRFTISRDNSKNTLYLQMNSLRAEDTAVYYCAIYTGRWEPFDYWGQGTLVTVSS | MRC-5 EC50 | 300 |
| DOM1h-574-13 (other) VH: EVQLLESGGGLVQPGGSLRLSCAASGFTFVKYSMGWVRQAPGKGLEWVSQISNTGDRTYYADSVKGRFTISRDNSKNTLYLQMNSLRAEDTAVYYCAKYTGRWEPFDYWGQGTLVTVSS | MRC-5 EC50 | 300 |

Where do the numbers come from? From patent US20110301335A1.
